Listed molecules paired with reported growth
Test system: RXF 393 renal
Test: NCI-60 one-dose screen, 48 h (100 = growth as untreated, 0 = no growth, -100 = all killed)
Details: 10 µM
The panel holds about 83,000 compounds, 20% with a hit somewhere; the sample as a whole holds those more often. Active and inactive are the calls of the source. Rule for the calls: active = growth percent below 10; inactive = the rest.
endpoint: growth

molecule: COc1ccc2c(=O)cc(C(Cl)(Cl)Cl)oc2c1
tested-on: RXF 393 renal
measured-result: -72.1% (active)

molecule: COc1ccccc1CNCCCN1C(=O)c2ccc3c4c(ccc(c24)C1=O)C(=O)N(CCCNCCNCCCN)C3=O
tested-on: RXF 393 renal
measured-result: 25.2% (inactive)

molecule: C[N+]1=C(/C=C/c2ccc(I)cc2)C(C)(C)c2ccccc21
tested-on: RXF 393 renal
measured-result: 70.7% (inactive)

molecule: CCOC(=O)c1sc(NC(=O)c2cc(OC)c(OC)c(OC)c2)nc1C
tested-on: RXF 393 renal
measured-result: 119% (inactive)

molecule: CCN(CC)CC(O)CNc1ccnc2cc(Cl)c(Cl)cc12 (configuration not stated)
tested-on: RXF 393 renal
measured-result: 81.5% (inactive)

molecule: Cc1ccc(/C(CS(=O)(=O)c2ccc(C)cc2)=N\O)cc1
tested-on: RXF 393 renal
measured-result: 93.6% (inactive)

molecule: Cn1c(=O)c2[nH]c(C(O)c3ccc(Cl)cc3)nc2n(C)c1=O (configuration not stated)
tested-on: RXF 393 renal
measured-result: 120% (inactive)

molecule: CCOC(=O)c1c(O)c2cc(-c3ccccc3)nc(OCC)c2c(=O)n1C
tested-on: RXF 393 renal
measured-result: -0.249% (active)

molecule: CCOC(=O)CNC(=O)Nc1ccc(Oc2ccc(NC(=O)NCC(=O)OCC)cc2)cc1
tested-on: RXF 393 renal
measured-result: 91.6% (inactive)

molecule: CCCCCCCCCCCC(c1ccccc1)N(C)C (configuration not stated)
tested-on: RXF 393 renal
measured-result: 92.5% (inactive)

molecule: COc1ccc(Nc2nc(NCc3ccccc3)c3ccccc3n2)cc1
tested-on: RXF 393 renal
measured-result: 14.5% (inactive)

molecule: CCc1c(C(=O)NCc2c(O)ccc3cccc(O)c23)[nH]c(C)c1C(C)=O
tested-on: RXF 393 renal
measured-result: 58.8% (inactive)

molecule: O=C(Nc1ccc(OS(=O)(=O)Cc2ccccc2)cc1)C12CC3CC(CC(C3)C1)C2
tested-on: RXF 393 renal
measured-result: 99% (inactive)

molecule: COc1ccc(COC(=O)CC(C)C)cc1
tested-on: RXF 393 renal
measured-result: 101% (inactive)

molecule: CCOC(=O)c1ccc(N(C=O)CCC(=O)CCl)cc1
tested-on: RXF 393 renal
measured-result: -37.7% (active)

molecule: C=CCOc1ccc2c(c1)CC[C@@H]1[C@@H]2CC[C@]2(C)C(=O)/C(=N/O)C[C@@H]12
tested-on: RXF 393 renal
measured-result: 1.96% (active)

molecule: O=C(COc1ccc(-c2nc3ccccc3[nH]2)cc1)N=Nc1c(O)[nH]c2ccccc12
tested-on: RXF 393 renal
measured-result: 107% (inactive)

molecule: O=C1CC(c2cccc(-c3cccnc3)c2)=Nc2ccc(Br)cc2N1
tested-on: RXF 393 renal
measured-result: 40.2% (inactive)

molecule: CNCCCNCCCN1C(=O)c2ccc3c4c(ccc(c24)C1=O)C(=O)N(CCCNCc1ccccc1OC)C3=O
tested-on: RXF 393 renal
measured-result: -11.5% (active)

molecule: CCOC(=O)Nc1ccc2c(c1)C(=O)N(CC)c1ccccc1O2
tested-on: RXF 393 renal
measured-result: -4.5% (active)

molecule: CCNC1(NC#N)CCCCC1
tested-on: RXF 393 renal
measured-result: 108% (inactive)

molecule: COc1cc(C)c2sc3ccccc3c(=O)c2c1NCCN(C)C
tested-on: RXF 393 renal
measured-result: 59.3% (inactive)

Each recorded value in this set is attributed to PubChem BioAssay (NCI).
